Biological target: SIRT1 (Homo sapiens, UniProt Q96EB6)
Sequence (Q96EB6 1-747): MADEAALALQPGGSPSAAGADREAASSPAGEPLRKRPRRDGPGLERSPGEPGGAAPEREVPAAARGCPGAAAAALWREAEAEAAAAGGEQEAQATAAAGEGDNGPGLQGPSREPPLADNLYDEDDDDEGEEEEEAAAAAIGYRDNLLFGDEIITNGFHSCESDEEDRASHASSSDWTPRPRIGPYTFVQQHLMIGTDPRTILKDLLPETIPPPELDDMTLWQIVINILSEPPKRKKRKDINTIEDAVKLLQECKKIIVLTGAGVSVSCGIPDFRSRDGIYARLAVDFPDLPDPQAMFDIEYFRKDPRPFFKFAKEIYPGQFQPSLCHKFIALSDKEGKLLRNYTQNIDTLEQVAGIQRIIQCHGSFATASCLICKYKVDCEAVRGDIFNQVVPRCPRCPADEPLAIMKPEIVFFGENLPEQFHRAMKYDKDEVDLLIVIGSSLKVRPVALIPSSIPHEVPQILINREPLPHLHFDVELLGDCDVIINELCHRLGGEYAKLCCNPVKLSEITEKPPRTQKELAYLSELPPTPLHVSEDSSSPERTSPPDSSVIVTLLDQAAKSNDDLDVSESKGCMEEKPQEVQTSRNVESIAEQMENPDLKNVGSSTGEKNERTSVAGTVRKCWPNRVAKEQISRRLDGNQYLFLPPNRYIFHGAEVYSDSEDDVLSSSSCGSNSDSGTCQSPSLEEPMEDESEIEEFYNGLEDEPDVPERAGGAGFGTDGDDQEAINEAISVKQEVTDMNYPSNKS
Assay: TAMRA based mass spectrometry assay of SIRT1 activity
Assay type: biochemical
Conditions: TAMRA peptide substrate; concentration giving 150% activation of SIRT1
MEASUREMENT_KIND: TAMRA EC1.5

Here's what some known entries look like.
[
  {
    "MOLECULE": "O=C(Nc1cncc(OC[C@@H](O)CO)n1)c1cnc2ccc(-c3ccccc3C(F)(F)F)nn12 [Compound 556]",
    "MEASUREMENT_KIND": "TAMRA EC1.5",
    "REPORTED_MEASUREMENT": "A (EC1.5<1 μM)"
  },
  {
    "MOLECULE": "O=C(Nc1ncccn1)c1cnn2ccc(-c3ccccc3OC(F)(F)F)nc12 [Compound 559]",
    "MEASUREMENT_KIND": "TAMRA EC1.5",
    "REPORTED_MEASUREMENT": "B (EC1.5 1-25 μM)"
  },
  {
    "MOLECULE": "Cc1nc2c(C)cc(-c3ccccc3C(F)(F)F)nn2c1C(=O)NCc1ccccn1 [Compound 561]",
    "MEASUREMENT_KIND": "TAMRA EC1.5",
    "REPORTED_MEASUREMENT": "B (EC1.5 1-25 μM)"
  },
  {
    "MOLECULE": "Cc1cccc(NC(=O)c2c(C)nc3c(C)cc(-c4ccccc4C(F)(F)F)nn23)n1 [Compound 458]",
    "MEASUREMENT_KIND": "TAMRA EC1.5",
    "REPORTED_MEASUREMENT": "A (EC1.5<1 μM)"
  },
  {
    "MOLECULE": "Cc1cc(NC(=O)c2cnc3ccc(-c4ccccc4C(F)(F)F)nn23)cc(OCC(O)CO)n1 (centres unmarked) [Compound 406]",
    "MEASUREMENT_KIND": "TAMRA EC1.5",
    "REPORTED_MEASUREMENT": "A (EC1.5<1 μM)"
  },
  {
    "MOLECULE": "O=C(Nc1cccc(N2CC3(CCO3)C2)n1)c1cnc2ccc(-c3ccccc3C(F)(F)F)nn12 [Compound 538]",
    "MEASUREMENT_KIND": "TAMRA EC1.5",
    "REPORTED_MEASUREMENT": "A (EC1.5<1 μM)"
  }
]

For the molecule Cc1nc(NC(=O)c2c(C)nc3c(C)cc(-c4ccccc4C(F)(F)F)nn23)sc1C [Compound 457] , give its measured TAMRA EC1.5 value.
A (EC1.5<1 μM)
